tested_target: Recombinant Human CTLA4-Fc chimera (R&D systems) (human) (UniProt P16410)
method_notes: BLItz (BLI), biotinylated peptide on SA chip, CTLA-4 protein as analyte
pKd: −log10 of the molar value. Bridges are numbered along the chain shown (N, C = ends). Primed or numbered codes have the meaning given here. Where no end group is shown, it is not given here. The star is where a group is joined. Biotin = O=C1N[C@H]2[C@H](CS[C@H]2CCCCC(=O)*)N1; PEG4 = NCCOCCOCCOCCOCCC(=O)O; PEG4′ = not defined here
attribute_measured: pKd

1. {Biotin-PEG4′}-KCMHPFLLVVSHHFC (disulfide 2-15) [biotinylated H12SSI-Ctla4-3-02: Biotin-PEG4-…]
2. {Biotin-PEG4}-KCMHPFLPIVSHHFCER (disulfide 2-15) [biotinylated clone #19: Biotin-PEG4-…]
Query: 1 or 2 : whose pKd is greater? // return label of chosen record
Result: 2
(2: 7.21, 1: 6.72)
